# Tested on: Pseudomonas aeruginosa
# Format: cell-based
Bridge positions count the residues as written; N and C are the ends. Square brackets hold non-standard residues; d marks the D form. Peptide text beside a SMILES is read from it. * marks the point of attachment. ξ: configuration not given here. dBip = N[C@H](Cc1ccc(-c2ccccc2)cc1)C(=O)O; X3 = CCCCCCCCN1CCNC[C@H]1C(=O)*; Thr(3ξ) = CC(O)[C@H](N)C(=O)O; Dab = NCC[C@H](N)C(=O)O
outcomeMeasure: MIC P. aeruginosa 068 (µg/mL)
Enter your answer as a number in µg/mL; do not include the unit.

compound	MIC P. aeruginosa 068 [µg/mL]
CC(C)C[C@@H]1NC(=O)[C@@H](CC2CCCCC2)NC(=O)[C@H](CCN)NC(=O)[C@@H](NC(=O)[C@H](CCN)NC(=O)[C@@H](NC(=O)C(CCN)c2ccccc2)[C@@H](C)O)CCNC(=O)[C@H]([C@@H](C)O)NC(=O)[C@H](CCN)NC(=O)[C@H](CCN)NC1=O (single isomer, unassigned; isomer 2) [Example 64]	8
CCCCCCCCN1CCNC[C@H]1C(=O)N[C@H](C(=O)N[C@@H](CCN)C(=O)N[C@H]1CCNC(=O)[C@H]([C@@H](C)O)NC(=O)[C@H](CCN)NC(=O)[C@H](CCN)NC(=O)[C@H](CC(C)C)NC(=O)[C@@H](Cc2ccc(-c3ccccc3)cc2)NC(=O)[C@H](CCN)NC1=O)C(C)O (stereo partly drawn) [Example 6] (X3-[Thr(3ξ)][Dab][Dab][Dab][dBip]L[Dab][Dab]T; lactam 3-C)	2

What measured MIC P. aeruginosa 068 is associated with CC(C)CCC(CCN)C(=O)N[C@H](C(=O)N[C@@H](CN)C(=O)N[C@H]1CCNC(=O)[C@H]([C@@H](C)O)NC(=O)[C@H](CCN)NC(=O)[C@H](CCN)NC(=O)[C@H](CC(C)C)NC(=O)[C@@H](CC2CCCCC2)NC(=O)[C@H](CCN)NC1=O)[C@@H](C)O (single isomer, unassigned; isomer 2) [Example 80] on Pseudomonas aeruginosa?
2
